# Test system: MLC-T18/S19 phosphorylation
# METHOD: Myosin light chain phosphorylation assay (ELISA) in A7r5 cells
# Type: cell-based, Rat
# APPLIED CONDITIONS: Rattus norvegicus; MLC-T18/S19 phosphorylation, A7r5 cells, serum-free medium
EXPERIMENTAL ENDPOINT: EC50

Recorded results for 6 molecules are shown here.
Requested field: EC50. Item: COC(=O)c1cccc(C(=O)Nc2cccc(CNC3CCC(Nc4cccc5cnccc45)CC3)c2)c1 (stereo not shown) < 300 nM

Param item: COC(=O)c1ccc(C(=O)Nc2cccc(CN3CCC(Nc4cccc5cnccc45)C3)c2)cc1 (stereo not shown) < 300 nM

Param item: CCCOC(=O)c1cccc(C(=O)Nc2cccc(CN3CCC(Nc4cccc5cnccc45)C3)c2)c1 (stereo not shown) < 300 nM

Param item: COC(=O)c1cccc(C(=O)Nc2cccc(CN3CCC(Nc4cccc5cnccc45)C3)c2)c1 (stereo not shown) < 300 nM

Param item: O=C(Nc1cccc(CNC2CCC(Nc3cccc4cnccc34)CC2)c1)c1ccc(C(=O)OCC2CCCO2)cc1 (stereo not shown) 300 to 1000 nM

Param item: COCCOC(=O)c1cccc(C(=O)Nc2cccc(CN3CCC(Nc4cccc5cnccc45)C3)c2)c1 (stereo not shown) < 300 nM

Others:
Requested field: EC50. Item: C[C@@H](N)[C@H]1CC[C@H](C(=O)Nc2ccncc2)CC1 [Compound Y-27632, Y-27632, reference compound] 300 to 1000 nM

Param item: CCCOC(=O)c1ccc(C(=O)Nc2cccc(CN3CCC(Nc4cccc5cnccc45)C3)c2)cc1 (stereo not shown) < 300 nM

Param item: `COCCOC(=O)c1cccc(C(=O)Nc2cccc(CN3CCC(Nc4cccc5cnccc45)CC3)c2)c1` 300 to 1000 nM

Param item: O=S(=O)(c1cccc2cnccc12)N1CCCNCC1 [Fasudil, reference compound] 1000 to 10000 nM

Cited source for all entries: patent US9394286B2
